species on record: Rattus norvegicus; assay: DrugMatrix - Regimen: Daily Repeat; type: toxicity, organism-based, Sprague-Dawley; set-up: regimen Daily Repeat, gender Male, age 6-8 weeks; conditions: in vivo, po, 1500 mg/kg, 120 h, tissue Plasma, route oral GAVAGE, dose level High, time 5 day, vehicle .5 % CMC
What TOTAL BILIRUBIN was measured for each of the following?
Write the answer as a number in mg/dL, unit excluded.

So for Cc1ccc(S(=O)(=O)NC(=O)NN2CC3CCCC3C2)cc1 (configuration not stated) [GLICLAZIDE] , the logged TOTAL BILIRUBIN turned out to be 0.1

So for NC(=O)c1cnccn1 [PYRAZINAMIDE] , the logged TOTAL BILIRUBIN turned out to be 0.2

So for CNC(=C[N+](=O)[O-])NCCSCc1ccc(CN(C)C)o1 [RANITIDINE] , the logged TOTAL BILIRUBIN turned out to be 0.23

So for C[C@]1(Cn2ccnn2)[C@H](C(=O)O)N2C(=O)C[C@H]2S1(=O)=O [TAZOBACTAM] , the logged TOTAL BILIRUBIN turned out to be 0.2

So for O=C(N[C@H](CO)[C@H](O)c1ccc([N+](=O)[O-])cc1)C(Cl)Cl [CHLORAMPHENICOL] , the logged TOTAL BILIRUBIN turned out to be 0.17

So for CO[C@H]1/C=C/O[C@@]2(C)Oc3c(C)c(O)c4c(c3C2=O)C2=NC3(CCN(CC(C)C)CC3)NC2=C(NC(=O)/C(C)=C\C=C\[C@H](C)[C@H](O)[C@@H](C)[C@@H](O)[C@@H](C)[C@H](OC(C)=O)[C@@H]1C)C4=O [RIFABUTIN] , the logged TOTAL BILIRUBIN turned out to be 0.6

So for Cc1cc(=O)n(-c2ccccc2)n1C [ANTIPYRINE] , the logged TOTAL BILIRUBIN turned out to be 0.2

---

What SODIUM was measured for each of the following?
species: Rattus norvegicus; assay: DrugMatrix - Regimen: Daily Repeat; format: toxicity, organism-based, Sprague-Dawley; parameters: regimen Daily Repeat, gender Male, age 6-8 weeks; conditions: in vivo, po, 0 mg/kg, 72 h, tissue Plasma, route oral GAVAGE, dose level Control, time 3 day, vehicle .5 % CMC
Write the answer as a number in MEQ/L, unit excluded.

So for CC(C)[C@H]1CC[C@H](C(=O)N[C@H](Cc2ccccc2)C(=O)O)CC1 [NATEGLINIDE] , the logged SODIUM turned out to be 144.1

So for N=C(N)NC(=O)c1nc(Cl)c(N)nc1N [AMILORIDE] , the logged SODIUM turned out to be 152.83

So for C[C@]1(Cn2ccnn2)[C@H](C(=O)O)N2C(=O)C[C@H]2S1(=O)=O , the logged SODIUM turned out to be 141.28

So for CC(=O)CC(c1ccccc1)c1c(O)c2ccccc2oc1=O (stereo not drawn) , the logged SODIUM turned out to be 143.72

So for CC[C@@H](CO)NCCN[C@@H](CC)CO , the logged SODIUM turned out to be 152.83

So for CN1CCC(=C2c3ccccc3C=Cc3ccccc32)CC1 , the logged SODIUM turned out to be 149.5

So for C#C[C@]1(O)CC[C@H]2[C@@H]3CCc4cc(OC)ccc4[C@H]3CC[C@@]21C , the logged SODIUM turned out to be 142.22

So for OC(CCN1CCCCC1)(c1ccccc1)C1CCCCC1 (stereo not drawn) , the logged SODIUM turned out to be 141.47

Each recorded value in this set is attributed to ChEMBL document CHEMBL3885881.
